Where do these numbers come from? They come from PubChem BioAssay (NCATS).

target: Tumor susceptibility gene 101 protein (Homo sapiens); assay: qHTS Assay for Iinhibitors of HIV-1 Budding by Blocking the Interaction of PTAP/TSG101: Hit Validation (AID 651600); conditions: PTAP peptide/TSG101 UEV interaction, biochemical assay; series mostly up to 57.5 µM; note: nearly all actives have a fitted effect of over 70% in size; note: potency is the fitted concentration of half-maximal effect
Records with an inconclusive call do not appear. Activity calls are given as the source filed them. Calls come from the whole dose curve; as a rule, active = well fitted inhibition curve with a large enough effect; inconclusive = small, poorly fitted or top-dose-only effect; inactive = no such curve, though single readings can be large or run the other way.
experimental.endpoint: Potency

>>> result("Cc1cc(N2CCCC2)ccc1C=C(C#N)C#N")
"inactive"
>>> result("CN1CC=C2C(C#N)=C(N)C(C#N)(C#N)C(c3ccncc3)C2C1 (configuration not stated)")
"inactive"
>>> result("CN1Cc2c(c(C#N)c(N)n(C)c2=S)CC1(C)C")
"32.6 µM (active)"
>>> result("CCOC(=O)c1c(/N=C/c2c(O)n(-c3ccccc3F)c(=S)[nH]c2=O)sc2c1CCCC2")
"16.3 µM (active)"
>>> result("COc1cccc2c1C(=O)c1c(O)c3c(c(O)c1C2=O)CC(O)(C(C)=NO)CC3OC1CC(N)C(O)C(C)O1 (configuration not stated)")
"10.3 µM (active)"

QUERY: API: value(readout= Potency, system= Tumor susceptibility gene 101 protein (Homo sapiens), query= `N#CCN1CCN(c2ccc(C(F)(F)F)cc2)CC1` )
RESULT: inactive

QUERY: Moving on to `CC(C)C[C@H]1C(=O)N2CCC[C@H]2[C@]2(O)O[C@](NC(=O)[C@@H]3C=C4c5cccc6[nH]cc(c56)C[C@H]4N(C)C3)(C(C)C)C(=O)N12`
RESULT: inactive

* * *

# Potency annotations
Molecular target: Glucocorticoid receptor (Homo sapiens) (UniProt P04150)
Sequence (P04150 whole entry, looked up): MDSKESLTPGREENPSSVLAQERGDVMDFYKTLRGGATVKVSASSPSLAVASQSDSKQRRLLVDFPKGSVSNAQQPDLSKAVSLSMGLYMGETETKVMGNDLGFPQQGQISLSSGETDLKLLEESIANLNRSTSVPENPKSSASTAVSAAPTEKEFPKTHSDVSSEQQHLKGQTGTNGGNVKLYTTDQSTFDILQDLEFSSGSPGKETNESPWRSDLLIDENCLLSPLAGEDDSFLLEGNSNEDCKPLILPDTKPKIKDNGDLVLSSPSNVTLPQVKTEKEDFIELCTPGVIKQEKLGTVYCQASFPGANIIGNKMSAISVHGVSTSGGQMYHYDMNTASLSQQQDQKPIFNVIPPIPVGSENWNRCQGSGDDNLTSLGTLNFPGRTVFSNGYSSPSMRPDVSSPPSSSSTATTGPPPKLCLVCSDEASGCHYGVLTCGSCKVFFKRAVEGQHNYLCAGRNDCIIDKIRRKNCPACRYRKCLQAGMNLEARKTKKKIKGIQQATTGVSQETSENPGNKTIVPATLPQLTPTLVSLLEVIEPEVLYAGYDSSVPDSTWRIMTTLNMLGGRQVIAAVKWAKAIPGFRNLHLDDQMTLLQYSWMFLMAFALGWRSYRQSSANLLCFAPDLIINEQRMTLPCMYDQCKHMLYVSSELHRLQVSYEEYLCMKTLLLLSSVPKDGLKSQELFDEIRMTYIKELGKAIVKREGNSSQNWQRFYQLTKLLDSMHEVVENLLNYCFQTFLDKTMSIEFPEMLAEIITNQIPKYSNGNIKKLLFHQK
Test: GR-GFP Redistribution (AID 450); note: potency is the fitted concentration of half-maximal effect
Details: U2OS GR-GFP nuclear translocation, laser cytometry, 2 h
Procedure: NIH Molecular Libraries Screening Centers Network [MLSCN] NIH Chemical Genomics Center [NCGC] […] GR-GFP U2OS cells were maintained in DMEM with Glutamax and high glucose, 1% v/v penicillin-streptomycin, and 0.5 mg/mL Geneticin. […] The plates were read by the Acumen Explorer using a 1 x 8 um scan of the whole well area. PI fluorescence triggered the collection of PI and GFP signals. […]
The source made the active and inactive calls.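 How the source made its calls: active means compounds whose dose series gives a full or clear partial fitted curve of increased nuclear translocation; inconclusive means weak partial curve or effect only at the top dose; inactive means no dose-dependent translocation response.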

Worked examples follow.
>>> result("CN1[C@@H]2CC[C@H]1CC(O[C@@H](c1ccccc1)c1ccccc1N)C2 (stereo not given in full)")
"> 46 µM (inactive)"
>>> result("CNCCc1nc(N)n[nH]1")
"> 20.6 µM (inactive)"
>>> result("CC(C)[C@@]1(NC(=O)[C@@H]2C[C@H]3c4cccc5[nH]cc(c45)C[C@@H]3N(C)C2)O[C@@]2(O)[C@H]3CCCN3C(=O)[C@@H](Cc3ccccc3)N2C1=O")
"> 46 µM (inactive)"
>>> result("O=C(CN1CCN(CCO)CC1)Nc1ccc(Cl)cc1C(=O)c1ccccc1")
"> 20.6 µM (inactive)"

# next molecule below
QUERY: Potency for `COc1ccc(C(=O)CC2C(=O)N(C)C(=O)N(C)C2=O)cc1` ?
RESULT: > 20.6 µM (inactive)

* * *

# activation annotations
biological target: Bile acid receptor (Homo sapiens); test: qHTS assay for small molecule agonists of farnesoid X receptor signaling (AID 588527); conditions: HEK293T FXR-UAS-bla, beta-lactamase ratio, 16 h; hits give high values;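 note: 0% = vehicle basal and 100% = reference agonist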
Records with an inconclusive call do not appear. The source made the active and inactive calls. Calls come from the whole dose curve.

>>> result("CC(C)c1ccc(C(C)C)cc1")
"2.92% (inactive)"
>>> result("CC(c1ccc(O)cc1)(c1ccc(O)cc1)c1ccc(O)cc1")
"12.5% (inactive)"
>>> result("CNC(=O)Oc1cc(C)c(SC)c(C)c1")
"5.14% (inactive)"
>>> result("CCCCC(CC)C(=O)Cl (centres undefined)")
"-2.28% (inactive)"
>>> result("FB(F)F")
"0.812% (inactive)"

QUERY: activation for `C#CCN1CC(=O)N(COC(=O)[C@@H]2[C@@H](C=C(C)C)C2(C)C)C1=O` ?
RESULT: 5.41% (inactive)

QUERY: Moving on to `CCCOC(=O)c1cc(O)c(O)c(O)c1`
RESULT: -0.748% (inactive)

QUERY: Moving on to CCCC(Cl)CCCC(Cl)CCC(Cl)CCC(Cl)CCC(Cl)CCCC(Cl)CCC (centres undefined)
RESULT: 1.98% (inactive)

QUERY: Moving on to `C/C(=N\C(N)=O)N(C)Cc1ccc(Cl)nc1`
RESULT: 2.77% (inactive)

QUERY: Moving on to `COc1ccc(O)c(C(C)(C)C)c1`
RESULT: -2.62% (inactive)

QUERY: Moving on to `N#Cc1cc(Br)c(O)c(Br)c1`
RESULT: 1.36% (inactive)

QUERY: Moving on to `CC(=O)c1c(C)c([N+](=O)[O-])c(C(C)(C)C)c([N+](=O)[O-])c1C`
RESULT: 1.55% (inactive)

QUERY: Moving on to `Cl[Si](Cl)(Cl)c1ccccc1`
RESULT: 0.575% (inactive)

QUERY: Moving on to `CCCCOCCOCCOCCCC`
RESULT: -0.244% (inactive)

QUERY: Moving on to `FC(F)(F)c1ccc(OCCCOc2c(Cl)cc(OCC=C(Cl)Cl)cc2Cl)nc1`
RESULT: -2.38% (inactive)

QUERY: Moving on to `CCCCOCN(C(=O)CCl)c1c(CC)cccc1CC`
RESULT: -0.328% (inactive)

QUERY: Moving on to CC(COCC(C)OC(=O)c1ccccc1)OC(=O)c1ccccc1 (centres undefined)
RESULT: 3.09% (inactive)

QUERY: Moving on to `CCCCCCc1ccc(N)cc1`
RESULT: -3.51% (inactive)

QUERY: Moving on to CC(C)OCC1CO1 (centres undefined)
RESULT: -0.0386% (inactive)

QUERY: Moving on to `CC(C)OC(=O)c1ccccc1C(=O)OC(C)C`
RESULT: 0.429% (inactive)

QUERY: Moving on to `Nc1cc(Cl)c(N)c(Cl)c1`
RESULT: -3.48% (inactive)

QUERY: Moving on to `Cc1ccc(S(=O)(=O)NC2CCCCC2)cc1`
RESULT: 0.615% (inactive)
